Readings of IC50 for the listed molecules
assay_details: Inhibition of Human Protein Kinase A (PKA)
Respond numerically; units are µM and should not be typed.

# annotated cases, reported IC50 shown
compound_string=Cn1nnc(-c2cccc(O)c2C(=O)c2c(O)cc(C(=O)O[C@@H]3CCC[C@H]3NC(=O)c3ccc(O)cc3)cc2O)n1 result_value=24
compound_string=CS(=O)(=O)Nc1cccc(O)c1C(=O)c1c(O)cc(C(=O)O[C@@H]2CCC[C@H]2NC(=O)c2ccc(O)cc2)cc1O result_value=4.3

Now examine the next entry.
## Input Respond only with IC50 recorded for O=C(N[C@@H]1CCC[C@H]1OC(=O)c1cc(O)c(C(=O)c2c(O)cccc2NS(=O)(=O)C(F)(F)F)c(O)c1)c1ccc(O)cc1
## Output 4.6
